# Tested on: M14 melanoma
# procedure details: NCI tumour cell line growth inhibition, 48 h
Measured log10(TGI), listed per entry for reference.
observation type: log10(TGI) (log10 of the value in µM)

# molecule, subject of test, log10(TGI)
data = [
    ("Cc1c(Cl)ccc2[s+]snc12", "M14 melanoma", 1.89),
    ("CN1CC[C@H](N(C)C(=O)N2CC(c3cc(F)ccc3F)=C[C@@]2(CO)c2ccccc2)[C@H](F)C1", "M14 melanoma", -2.29),
    ("C/C(=N\\NC(N)=S)c1ccc(Oc2ccccc2)cc1", "M14 melanoma", 1.41),
    ("CCC[CH2][Sn]1([CH2]CCC)[O]C(=O)c2cccnc2[S]1", "M14 melanoma", 1.00),
    ("CC(=O)Nc1ccc(S(=O)(=O)N2C(=O)CCC2C(=O)Nc2ccccc2)cc1 (stereo not given)", "M14 melanoma", 1.10),
    ("N#CSc1c[nH]c2cccc(/C=C/C(=O)/C=C(O)/C=C/c3cccc4[nH]cc(SC#N)c34)c12", "M14 melanoma", 0.05),
    ("COc1ncc(-c2ccc3nc(N)n(-c4ccccc4C(F)(F)F)c(=O)c3c2)cc1S(=O)(=O)Nc1ccc(F)cc1F", "M14 melanoma", 1.17),
]

----------
# Tested on: KM20L2 colon
# procedure details: NCI tumour cell line growth inhibition, 48 h

# compound, subject of test, TGI
measured = [
    ("O=C(NC(=Nc1ccccc1)SCCSC(=Nc1ccccc1)NC(=O)c1ccccc1)c1ccccc1", "KM20L2 colon", "> 100 µM"),
    ("CCc1cccc(CC)c1NC1=CC(=O)C(=O)c2ccccc21", "KM20L2 colon", "48.9 µM"),
    ("Cc1cc(Br)ccc1N=NC1C(=O)ON=C1c1ccccc1 (stereo unspecified)", "KM20L2 colon", "> 100 µM"),
    ("CCCCP1(=O)C=CC(Cl)=C(C)C1 (stereo unspecified)", "KM20L2 colon", "> 100 µM"),
    ("N#CN1CCC2CC(=O)CCC2C1 (stereo unspecified)", "KM20L2 colon", "> 100 µM"),
    ("Cc1nc2ccccc2c(=O)n1/N=C(\\N=Nc1ccc(Cl)cc1)c1ccc(N(C)C)cc1", "KM20L2 colon", "> 100 µM"),
]

----------
# Test system: RPMI-8226 leukemia
# procedure details: NCI tumour cell line growth inhibition, 48 h
The reader will find reported log10 of TGI values listed item by item below.
observation type: log10 of TGI (log10 of the value in µM)

# compound, log10 of TGI
data = [
    ("COc1cnc2c(c1)C(=O)c1c-2n(CCCN2CCNCC2)c(=O)c2cc(F)ccc12", -0.34),
    ("CN(C)c1ccc(-c2cc(-c3cccc(NS(C)(=O)=O)c3)nc(N)c2C#N)cc1", 0.41),
    ("C/C(=N\\NC(N)=S)c1ccc(Oc2ccccc2)cc1", 1.04),
    ("CCN(CC)CCCC(C)Nc1ccnc2cc(OC)ccc12 (stereo unspecified)", 1.62),
    ("O=[N+]([O-])C1=Cc2c(O)ccc(O)c2C2c3ccccc3NC12 (stereo unspecified)", 1.80),
    ("CS(=O)(=O)Sc1ccc(Cl)cc1", 1.62),
    ("Fc1cnccc1-c1nc2ccc3[nH]ncc3c2c2c1CCCC2", 0.80),
    ("CCN(CC)CCN1C(=O)c2cccc3cc(N)cc(c23)C1=O", 1.60),
    ("O=C(/C=C/c1c[nH]c2ccccc12)c1ccccc1O", 1.79),
    ("COC(=O)C#CC1(O)C=CC(=O)C=C1", 0.43),
    ("Nc1ccc(Oc2ccc(C3(c4ccc(Oc5ccc(N)c(O)c5)cc4)C4CC5CC(C4)CC3C5)cc2)cc1O", 0.75),
    ("CS(=O)c1cc(=O)c2ccccc2s1 (stereo unspecified)", 0.96),
    ("NC1=Nc2cc(OCCCCN3Cc4ccccc4C3)c(OCC3CC3)cc2C12CCCC2", 0.60),
]

----------
# Tested on: HCT-15 colon
# procedure details: NCI tumour cell line growth inhibition, 48 h
observation type: TGI

# molecule, val
records = [
    ("CC1(C)N=C(N)N=C(N)N1c1cccc(CC(=O)Nc2ccccc2)c1", "> 100 µM"),
    ("Cc1nnc(NS(=O)(=O)c2ccc(N=Nc3c(O)c(C(=O)O)cc4ccccc34)cc2)s1", "> 100 µM"),
    ("CC(=O)Nc1ccc(S(=O)(=O)N2C(=O)CCC2C(=O)Nc2ccccc2)cc1 (stereo not drawn)", "14.8 µM"),
    ("Cc1ccc(CNc2ccc(Cl)cc2NCc2ccc(C)c(O)c2)cc1O", "12.2 µM"),
    ("CC(C)CCNC(=O)c1ccc(CNC(=O)/C=C/c2ccc3c(c2)-c2ccccc2C3)cc1", "> 100 µM"),
    ("COc1ccc(-c2cc(-c3ccc(Cl)cc3)c(C#N)c(=O)n2CCCCCC(=O)Nc2ccccc2N)cc1", "10.4 µM"),
    ("Cc1cccc2c(=O)c3cccc(CC(=O)O)c3oc12", "> 100 µM"),
    ("CC(=O)OCC1OC(Sc2nc(-c3ccccc3)c(C#N)c(=O)n2C2OC(COC(C)=O)C(OC(C)=O)C(OC(C)=O)C2OC(C)=O)C(OC(C)=O)C(OC(C)=O)C1OC(C)=O (stereo not drawn)", "> 100 µM"),
]

----------
# System: HS 578T breast
# procedure details: NCI tumour cell line growth inhibition, 48 h; in the data active = GI50 below about 0.43 µM; inactive = the rest
Classes used: active, inactive

# compound, discrete label
records = [
    ("O=C(c1ccco1)c1c(C(F)(F)F)n([O-])c2cc(Cl)c(Cl)cc2[n+]1=O", "inactive"),
    ("COc1cc(F)c(F)c(F)c1C(=O)c1cnc(NC2CCN(S(C)(=O)=O)CC2)nc1N", "inactive"),
    ("N#CCC1CCN(c2nc(Nc3ccc(N4CCC(O)CC4)cc3)c3c(=O)[nH]ncc3n2)CC1", "active"),
    ("CC[C@@]12CC(C(=O)OC)=C3Nc4ccccc4[C@@]34CCN(C[C@H]3O[C@H]31)[C@@H]24", "inactive"),
    ("Nc1ncnc2c1ncn2C1SC(CO)C(O)C1O (centres undefined)", "inactive"),
    ("CN(C)CCCn1c2c(c3ccc(N4CCNCC4)cc3c1=O)C(=O)c1ccccc1-2", "inactive"),
    ("COc1cc(-c2nn(-c3cccc(NC(=O)NCCNC(=O)c4ccccc4)c3)cc2-c2ccncc2)ccc1Cl", "inactive"),
    ("CCN(CC)c1ccc(C=C2C(=O)NC(=S)NC2=O)cc1", "inactive"),
    ("C=C(C)[C@@H]1CC[C@]2(C(=O)OC)CC[C@]3(C)[C@H](CC[C@@H]4[C@@]5(C)CC/C(=N\\OCCC(=NCCC#N)NOCCC#N)C(C)(C)[C@@H]5CC[C@]43C)[C@@H]12", "inactive"),
]

----------
# Tested on: UACC-257 melanoma
# procedure details: NCI tumour cell line growth inhibition, 48 h

# compound, GI50
measured = [
    ("COc1cccc(-c2cc(-c3ccc(Nc4nc(Nc5ccc(Cl)cc5)nc(Nc5ccc(Cl)cc5)n4)cc3)nc(N)c2C#N)c1", "2030 nM"),
    ("FC(F)(F)c1ccc(-c2cnc(-c3nn[nH]n3)nc2NC2CCCCCC2)cc1", "> 10000 nM"),
    ("COc1cc(C(=O)N[C@@H]2CCCN(C)C2)ccc1Nc1ncc2c(n1)N(C1CCCC1)CC(C)(C)C(=O)N2C", "285 nM"),
    ("CCn1nc(C#Cc2c(C)ccc3c(Nc4ccc(Cl)cc4)nccc23)c2c(N)ncnc21", "3540 nM"),
    ("C=CN(C(=O)N1CCN(c2cc3c(cc2F)c(=O)c(C(=O)O)cn3C2CC2)CC1)c1nc(-c2ccc(C)cc2)cs1", "2810 nM"),
    ("OC1(c2ccccc2)c2ccccc2N(c2ccccc2)c2ccc(Cl)cc21 (configuration not stated)", "201 nM"),
    ("Cc1n[nH]c(C)c1-c1c(C)n[nH]c1C", "2180 nM"),
    ("O=C(c1ccco1)c1c(C(F)(F)F)n([O-])c2cc(Cl)c(Cl)cc2[n+]1=O", "761 nM"),
    ("CC/C(=C\\c1ccc(N(C)C)cc1)c1ccncc1", "11600 nM"),
    ("Nc1ncnc2c1ncn2C1SC(CO)C(O)C1O (configuration not stated)", "> 100000 nM"),
    ("N#CSc1c[nH]c2cccc(/C=C/C(=O)/C=C(O)/C=C/c3cccc4[nH]cc(SC#N)c34)c12", "944 nM"),
    ("O=c1c2cc(F)ccc2sc2c(NCCCNCCO)nc3ccc(F)cc3c12", "1980 nM"),
    ("CCOc1ccc(-c2nc3ccc(-c4nc5ccc(N6CCN(C)CC6)cc5[nH]4)cc3[nH]2)cc1OCC", "1330 nM"),
    ("NC1=Nc2cc(OCCCCN3Cc4ccccc4C3)c(OCC3CC3)cc2C12CCCC2", "1620 nM"),
    ("CCCCCCCCCCCCNC(=O)N[C@H](C(=O)N[C@H]1/C=C/OCCNC(=O)/C=C/[C@H](C(C)C)NC1=O)C(C)C", "20000 nM"),
    ("CCCN1CCCC(c2ccc(Nc3nc(Nc4cc(F)ccc4C(N)=O)c4cc[nH]c4n3)c(OC)c2)C1 (configuration not stated)", "188 nM"),
    ("N=C(N)c1ccc(-c2ccc(-c3cccs3)s2)cc1F", "1770 nM"),
]
